- Test system: DU-145
- TEST: Inhibition of cell growth by colorimetric SRB assay, DU-145
- Format: cell-based
- CONDITION NOTES: Homo sapiens; DU-145; 48 hours exposure; total growth inhibition; read-out: TGI
Examples of compounds with documented IC (total growth inhibition) follow.
Write the value in µM as a bare number.

These recorded examples may help you get a feel for the data.
COMPOUND	ASSAYED TARGET	IC (total growth inhibition) [µM]
C/C=C\[C@H](C)[C@H]1O[C@@]1(C)[C@@H](O)[C@@H](CO)C(=O)[C@@H](CO)[C@@H](O)CC(=O)CC [3c + 4c]	DU-145	4.16
C/C=C\[C@H](C)[C@H]1OC1(C)[C@@H](O[Si](C)(C)C(C)(C)C)[C@@H](COC(C)=O)C(=O)[C@H](COC(C)=O)[C@@H](CC(=O)CC)OC(C)=O (some centres unmarked) [Compound 45]	DU-145	16.3
C/C=C\[C@H](C)[C@H]1O[C@@]1(C)[C@@H](O)[C@@H](CO)C(=O)[C@H](CO)[C@@H](O)CC(=O)CC [3a + 4a]	DU-145	0.403
C/C=C\[C@H](C)[C@H]1OC1(C)[C@@H](O[Si](C)(C)C(C)(C)C)[C@@H](CO[Si](C)(C)C(C)(C)C)C(=O)[C@@H](CO[Si](C)(C)C(C)(C)C)[C@H](CC(=O)CC)O[Si](C)(C)C(C)(C)C (some centres unmarked) [Compound 30a]	DU-145	12.1
C/C=C\[C@H](C)[C@H]1OC1(C)[C@@H](O[Si](C)(C)C(C)(C)C)[C@@H](COC(C)=O)C(=O)[C@H](CO)[C@H](O)CC(=O)CC (some centres unmarked) [Compound 43]	DU-145	9.66

Provide only the value of recorded IC (total growth inhibition) for C/C=C\[C@H](C)[C@H]1OC1(C)[C@@H](O[Si](C)(C)C(C)(C)C)[C@@H](COC(C)=O)C(=O)[C@H](COC(C)=O)[C@H](O)CC(=O)CC (some centres unmarked) [Compound 44] 10.4

Answer with the recorded IC (total growth inhibition) of C/C=C\[C@H](C)[C@H]1OC1(C)[C@@H](O[Si](C)(C)C(C)(C)C)[C@@H](CO)C(=O)[C@H](CO)[C@@H](O)CC(=O)CC (some centres unmarked) [20a + 20c] only. 20.5

// Input: C/C=C\[C@H](C)[C@H]1OC1(C)[C@@H](O)[C@@H](CO)C(=O)[C@@H](CO)[C@H](O)CC(=O)CC (some centres unmarked) [3d + 4d] . Output its IC (total growth inhibition) only. 26.8

Input C/C=C\[C@H](C)[C@H]1OC1(C)[C@@H](O[Si](C)(C)C(C)(C)C)[C@@H](CO[Si](C)(C)C(C)(C)C)C(=O)[C@H](CO[Si](C)(C)C(C)(C)C)[C@H](CC(=O)CC)O[Si](C)(C)C(C)(C)C (some centres unmarked) [Compound 19a] , output reported IC (total growth inhibition). 12.1

Name the recorded IC (total growth inhibition) of the item C/C=C\[C@H](C)[C@H]1OC1(C)[C@@H](O[Si](C)(C)C(C)(C)C)[C@@H](CO[Si](C)(C)C(C)(C)C)C(=O)[C@@H](CO[Si](C)(C)C(C)(C)C)[C@@H](CC(=O)CC)O[Si](C)(C)C(C)(C)C (some centres unmarked) [Compound 30b] in your answer. 12.1

Provide only the value of recorded IC (total growth inhibition) for C/C=C\[C@H](C)[C@H]1OC1(C)[C@@H](O)[C@@H](CO)C(=O)[C@H](CO)[C@H](O)CC(=O)CC (some centres unmarked) [3b + 4b] 26.8
